# Test system: Pseudomonas aeruginosa CNUR 2
# run description: MIC test, agar dilution with Steers multiwell inoculator
# Assay type: cell-based
# measurement setup: CNUR2, TSA dishes, 24 h at 35°C, read-out: Minimum Inhibiting Concentration
This listing pairs compounds with measured MIC.
measured endpoint: MIC (µg/mL)

compound="CN1CCN(c2c(F)cc3c(=O)c(C(=O)O)cn4c3c2SCC4)CC1 [RUFLOXACIN, reference compound]" measured_endpoint=MIC numeric_value=32
compound="CC1CN(c2cc3c(cc2N)c(=O)c(C(=O)O)cn3C2CC2)CC(C)N1 (centres unmarked) [Compound 11]" measured_endpoint=MIC numeric_value=8
compound="CC(C)(C)n1cc(C(=O)O)c(=O)c2cc(N)c(N3CCN(c4ccccn4)CC3)cc21 [Compound 48]" measured_endpoint=MIC numeric_value=128
compound="CN1CCN(c2c(N)c(N)c3c(=O)c(C(=O)O)cn(C4CC4)c3c2F)CC1 [Compound 28]" measured_endpoint=MIC numeric_value=8
compound="Cc1c(N2CCSCC2)c(N)cc2c(=O)c(C(=O)O)cn(C3CC3)c12 [Compound 35]" measured_endpoint=MIC numeric_value=8
compound="CN1CCN(c2cc3c(cc2N)c(=O)c(C(=O)O)cn3C(C)(C)C)CC1 [Compound 44]" measured_endpoint=MIC numeric_value=32
compound="CN1CCN(c2c(N)cc3c(=O)c(C(=O)O)cn(C4CC4)c3c2F)CC1 [Compound 22]" measured_endpoint=MIC numeric_value=8
compound="Nc1cc2c(=O)c(C(=O)O)cn(C3CC3)c2cc1N1CCNCC1 [Compound 9]" measured_endpoint=MIC numeric_value=8

---

# Test system: Acinebacter calcoloaceticus OSMPV 1130
# run description: MIC test, agar dilution with Steers multiwell inoculator
# Type: cell-based
# measurement setup: TSA dishes, 24 h at 35°C, read-out: Minimum Inhibiting Concentration
measured endpoint: MIC (µg/mL)

molecule=CN1CCN(c2cc3c(cc2N)c(=O)c(C(=O)O)cn3C2CC2)CC1 numeric_value=4
molecule=Nc1cc2c(=O)c(C(=O)O)cn(C3CC3)c2c(F)c1N1CCSCC1 numeric_value=1
molecule=Nc1cc2c(=O)c(C(=O)O)cn(C3CC3)c2cc1N1CCNCC1 numeric_value=16
molecule=Cc1c(N2CCN(C)CC2)c(N)cc2c(=O)c(C(=O)O)cn(C3CC3)c12 numeric_value=2
molecule="CC1CN(c2cc3c(cc2N)c(=O)c(C(=O)O)cn3C2CC2)CC(C)N1 (centres unmarked)" numeric_value=8
molecule=CN1CCN(c2cc3c(cc2N)c(=O)c(C(=O)O)cn3-c2ccc(F)cc2)CC1 numeric_value=16
molecule=Cc1c(N2CCc3ccccc3C2)c(N)cc2c(=O)c(C(=O)O)cn(C3CC3)c12 numeric_value=8
molecule=Nc1cc2c(=O)c(C(=O)O)cn(-c3ccc(F)cc3)c2cc1N1CCc2ccccc2C1 numeric_value=4

---

# Tested on: Staphylococcus epidermidis HCF Berset C.
measured endpoint: MIC (µg/mL)

smiles_structure=CC(C)(C)n1cc(C(=O)O)c(=O)c2cc(N)c(N3CCSCC3)cc21 experimental_target="Staphylococcus epidermidis HCF Berset C." numeric_value=0.5
smiles_structure=CN1CCN(c2nc3c(c(N)c2N)c(=O)c(C(=O)O)cn3C2CC2)CC1 experimental_target="Staphylococcus epidermidis HCF Berset C." numeric_value=4
smiles_structure=CN1CCN(c2cc3c(cc2N)c(=O)c(C(=O)O)cn3C2CC2)CC1 experimental_target="Staphylococcus epidermidis HCF Berset C." numeric_value=4
smiles_structure=Nc1cc2c(=O)c(C(=O)O)cn(-c3ccc(F)cc3)c2cc1N1CCSCC1 experimental_target="Staphylococcus epidermidis HCF Berset C." numeric_value=2
smiles_structure=CC(C)(C)n1cc(C(=O)O)c(=O)c2cc(N)c(N3CCc4ccccc4C3)cc21 experimental_target="Staphylococcus epidermidis HCF Berset C." numeric_value=1
smiles_structure=Nc1cc2c(=O)c(C(=O)O)cn(-c3ccc(F)cc3)c2cc1N1CCc2ccccc2C1 experimental_target="Staphylococcus epidermidis HCF Berset C." numeric_value=4
